test system: Escherichia coli; assay: Inhibition of biofilm formation in Escherichia coli K-12 ER2718 after 24 hrs by crystal violet staining-based assay; type: functional, organism-based; details: K-12 ER2718, 24 h
Measured Endpoint: pIC50
Value format note: pIC50 is -log10 of concentration (mol/L); just state the number.

Reading of pIC50 for `CCCCCCc1ccc(C(=O)NCCn2cc(C[C@@]34CCN[C@@H]3Nc3ccccc34)nn2)cc1` with Escherichia coli: 4.00

###

test system: Escherichia coli; assay: Antimicrobial activity against Escherichia coli K-12 ER2718 assessed as effect on planktonic growth at PC50 after 2 to 24 hrs; format: organism-based
Measured Endpoint: Activity

A selection of reference data follows.
structure_smiles_string=CCCCCCCc1ccc(C(=O)NCCn2cc(Cc3csc4ccccc34)nn2)cc1 measured_endpoint=Activity reported=Non-toxic
structure_smiles_string=CCCCCCCc1ccc(C(=O)NCCn2cc(Cc3c[nH]c4ccccc34)nn2)cc1 measured_endpoint=Activity reported=Non-toxic
structure_smiles_string=CCCCCCCc1ccc(C(=O)NCCn2cc(Cc3c(Br)[nH]c4ccccc34)nn2)cc1 measured_endpoint=Activity reported=Non-toxic
structure_smiles_string=CCCCCCNC(=O)Cn1cc(Cc2c[nH]c3ccccc23)nn1 measured_endpoint=Activity reported=Non-toxic
structure_smiles_string=CCCCCCc1ccc(C(=O)NCCn2cc(Cc3c[nH]c4ccccc34)nn2)cc1 measured_endpoint=Activity reported=Non-toxic
structure_smiles_string=O=C(NCCn1cc(Cc2c(Br)[nH]c3ccccc23)nn1)c1ccccc1F measured_endpoint=Activity reported=Non-toxic

Reading of Activity for `O=C(Cn1cc(Cc2csc3ccccc23)nn1)Nc1ccccc1` with Escherichia coli: Non-toxic

Reading of Activity for `O=C(Cn1cc(Cc2c[nH]c3ccccc23)nn1)Nc1ccccc1` with Escherichia coli: Non-toxic

Reading of Activity for `CCCCCc1ccc(C(=O)NCCn2cc(Cc3csc4ccccc34)nn2)cc1` with Escherichia coli: Non-toxic

Reading of Activity for `CCCCCc1ccc(C(=O)NCCn2cc(Cc3c[nH]c4ccccc34)nn2)cc1` with Escherichia coli: Non-toxic

Reading of Activity for `CCCCCCc1ccc(C(=O)NCCn2cc(Cc3c(Br)[nH]c4ccccc34)nn2)cc1` with Escherichia coli: Non-toxic

###

tested on: Escherichia coli; experiment: Induction of biofilm formation in Escherichia coli K-12 ER2718 at 50 uM after 24 hrs by crystal violet staining-based assay relative to control; type: functional
Collected Activity values appear next to each entry.

A selection of reference data follows.
structure_smiles_string=CCCCCCCc1ccc(C(=O)NCCn2cc(Cc3c[nH]c4ccccc34)nn2)cc1 reported=>50%
structure_smiles_string=CCCCCc1ccc(C(=O)NCCn2cc(Cc3c[nH]c4ccccc34)nn2)cc1 reported=>50%
structure_smiles_string=O=C(NCCn1cc(Cc2c(Br)[nH]c3ccccc23)nn1)c1ccccc1F reported=<50%
structure_smiles_string=O=C(Cn1cc(Cc2csc3ccccc23)nn1)Nc1ccccc1 reported=<50%

# context switch: different molecule, same Activity
Record summary for `CCCCCCc1ccc(C(=O)NCCn2cc(Cc3c(Br)[nH]c4ccccc34)nn2)cc1` : reported Activity = <50%

###

system: Staphylococcus aureus; assay: Antimicrobial activity against Staphylococcus aureus 29213 assessed as effect on planktonic growth at IC50 after 2 to 24 hrs; assay type: organism-based; conditions: in vivo
Measured Endpoint: Activity

A selection of reference data follows.
structure_smiles_string=O=C(NCCn1cc(Cc2c[nH]c3ccccc23)nn1)c1ccccc1F reported=Non-toxic
structure_smiles_string=CCCCCCNC(=O)Cn1cc(Cc2c[nH]c3ccccc23)nn1 reported=Non-toxic
structure_smiles_string=CCCCCc1ccc(C(=O)NCCn2cc(Cc3csc4ccccc34)nn2)cc1 reported=Non-toxic
structure_smiles_string=CCCCCCNC(=O)Cn1cc(Cc2c(Br)[nH]c3ccccc23)nn1 reported=Non-toxic

Record summary for `CCCCCCCc1ccc(C(=O)NCCn2cc(Cc3c[nH]c4ccccc34)nn2)cc1` : reported Activity = Non-toxic

Record summary for `CCCCCCc1ccc(C(=O)NCCn2cc(Cc3csc4ccccc34)nn2)cc1` : reported Activity = Non-toxic

Record summary for `CCCCCCc1ccc(C(=O)NCCn2cc(Cc3c[nH]c4ccccc34)nn2)cc1` : reported Activity = Non-toxic

Record summary for `O=C(NCCn1cc(Cc2csc3ccccc23)nn1)c1ccccc1` : reported Activity = Non-toxic

Record summary for `CCCCCCCc1ccc(C(=O)NCCn2cc(Cc3csc4ccccc34)nn2)cc1` : reported Activity = Non-toxic

Record summary for `CCCCCc1ccc(C(=O)NCCn2cc(Cc3c[nH]c4ccccc34)nn2)cc1` : reported Activity = Non-toxic
